The measured values listed here are drawn from paper PMC3684613.

- Test system: P. falciparum 3D7
- procedure text: DAPI stain fluorescent high content imaging assay, P. falciparum 3D7 (confirmatory screen, Avery)
- measurement context: Plasmodium falciparum, 3D7, read-out: EC50_nM
assay endpoint: pEC50
Please note pEC50 is a logarithmic value: minus log10 of concentration in mol/L. Answer with that number alone.

{"molecule": "Cc1ccc(C2CC(C(F)(F)F)n3nc(C(=O)N4CCN(C(c5ccccc5)c5ccccc5)CC4)cc3N2)cc1 (stereo not shown)", "tgt": "P. falciparum 3D7", "pEC50": 6.34}
{"molecule": "CCOc1ccc2nc(C)cc(Nc3ccc(N(C)C)cc3)c2c1", "tgt": "P. falciparum 3D7", "pEC50": 5.40}
{"molecule": "CC1CCCCN1CCCNC(=O)c1ccc2c(c1)sc1nc(-c3ccc(F)cc3)cn12 (stereo not shown)", "tgt": "P. falciparum 3D7", "pEC50": 6.19}

Input: // returns reported pEC50 for input Oc1ccccc1CNCC12CC3CC(CC(C3)C1)C2
Output: 7.65

Input: // returns reported pEC50 for input OC1=C2C(=Nc3ccccc3SC2c2ccc(Br)cc2)c2ccccc21 (stereo not shown)
Output: 6.25

Input: // returns reported pEC50 for input C=C(C)CCC(C)N1CCC(N2CCC(C(=O)NCCc3ccccc3)CC2)CC1 (stereo not shown)
Output: 5.76

Input: // returns reported pEC50 for input N=c1n(CCN2CCCCC2)c2ccccc2n1CC(O)c1cccc(Br)c1 (stereo not shown)
Output: 6.05

Input: // returns reported pEC50 for input Cc1ccc(N2C(=O)C3C(C2=O)C2(c4ccccc4)C(=O)C3(c3ccccc3)C(c3ccccc3)=C2c2ccccc2)cc1 (stereo not shown)
Output: 6.55

Input: // returns reported pEC50 for input CCOC(=O)c1cnc2ccc(OC)cc2c1Nc1ccc(N2CCN(C)CC2)cc1
Output: 5.96

Input: // returns reported pEC50 for input Cc1ccc(Cn2c(N3CCC(C(=O)NCc4cccs4)CC3)nc3ccccc32)cc1
Output: 6.02

Input: // returns reported pEC50 for input Cn1c(=O)n(C)c2cc(CNCCNc3ccnc4cc(Cl)ccc34)ccc21
Output: 6.26

Input: // returns reported pEC50 for input COc1cccc(C(=O)NC(c2ccc(C)cc2)c2cc(Cl)c3cccnc3c2O)c1 (stereo not shown)
Output: 6.41

Input: // returns reported pEC50 for input CCOc1c(Cl)cc(CNCC(O)c2ccccc2)cc1OC (stereo not shown)
Output: 5.98

Input: // returns reported pEC50 for input COc1cc(-c2nc(-c3ccc(Sc4ccccc4)cc3)c(-c3ccccc3)[nH]2)cc(OC)c1O
Output: 6.46

Input: // returns reported pEC50 for input Cc1cc(N(C)C)nc(Nc2ccc(NC(=O)Nc3ccccc3)cc2)n1
Output: 5.94

Input: // returns reported pEC50 for input OC(Cn1nnc2ccccc21)Cn1c2ccc(Br)cc2c2cc(Br)ccc21 (stereo not shown)
Output: 5.90

====

Recorded pEC50 for the following molecules
- System: P. falciparum 3D7
- procedure text: DAPI stain fluorescent high content imaging assay, P. falciparum 3D7 (confirmatory screen, Avery)
- measurement context: Plasmodium falciparum, 3D7, read-out: EC50_nM
Please note pEC50 is a logarithmic value: minus log10 of concentration in mol/L. Answer with that number alone.

// known answers, use as guide
{"molecule": "CCOC(=O)C1=C(c2ccccc2)N=c2sc(=Cc3cc(C)n(-c4ccc(F)cc4)c3C)c(=O)n2C1c1cccc(OC)c1OC (stereo not drawn)", "tgt": "P. falciparum 3D7", "assay endpoint": "pEC50", "obs value": 6.81}
{"molecule": "CCOc1cc2c(cc1OCC)C(c1cc(Cl)ccc1O)NCC2 (stereo not drawn)", "tgt": "P. falciparum 3D7", "assay endpoint": "pEC50", "obs value": 6.13}
{"molecule": "CN1CCN(c2ncnc3c2[nH]c2ccc(Cl)cc23)CC1", "tgt": "P. falciparum 3D7", "assay endpoint": "pEC50", "obs value": 5.92}
{"molecule": "O=C(NC1CCN(Cc2ccccc2)CC1)c1cc(-c2cccnc2)nc2ccc(Cl)cc12", "tgt": "P. falciparum 3D7", "assay endpoint": "pEC50", "obs value": 6.00}
{"molecule": "Cc1ccc2cc3c(N)c4c(C)ccc(C)c4nc3nc2c1", "tgt": "P. falciparum 3D7", "assay endpoint": "pEC50", "obs value": 5.88}

Field: next molecule
Input: What measured pEC50 is associated with CCC(O)c1ccc(Br)cc1NC(=O)c1cccc(Cl)c1 (stereo not drawn) on P. falciparum 3D7?
Output: 6.19

====

- System: P. falciparum 3D7
- procedure text: DAPI stain fluorescent high content imaging assay, P. falciparum 3D7 (confirmatory screen, Avery)
- measurement context: Plasmodium falciparum, 3D7, read-out: percent_inh @ 5 uM
assay endpoint: inhibition of growth at 5 µM (%)
A number alone suffices; assume %.

// known answers, use as guide
{"molecule": "COc1ccc(C2NCCc3c2[nH]c2ccccc32)cc1CN1CCN(c2ccc(F)cc2)CC1 (centres unmarked) [MMV019690]", "inhibition of growth at 5 µM / %": 97}
{"molecule": "O=C(NC1CCN(Cc2ccccc2)CC1)c1cc(-c2ccncc2)nc2ccc(Cl)cc12 [MMV020275]", "inhibition of growth at 5 µM / %": 92}

Input: // returns reported inhibition of growth at 5 µM for input Cc1ccc2nc(C)cc(Nc3cccc(C(F)(F)F)c3)c2c1 [MMV000326]
Output: 98

Input: // returns reported inhibition of growth at 5 µM for input O=C1CC(O)(C(F)(F)C(F)(F)F)Oc2ccccc21 (centres unmarked) [MMV000972]
Output: 95

Input: // returns reported inhibition of growth at 5 µM for input COc1ccc(-c2cc(=O)oc3c4c(ccc23)OCN(Cc2ccc(F)cc2)C4)cc1 [MMV000604]
Output: 96

====

- System: P. falciparum 3D7
- procedure text: DAPI stain fluorescent high content imaging assay, P. falciparum 3D7 (confirmatory screen, Avery)
- measurement context: Plasmodium falciparum, 3D7, read-out: percent_inh @ 5 uM
Recorded inhibition of growth at 5 µM for the following compounds
A number alone suffices; assume %.

// known answers, use as guide
{"compound": "CCOC(=O)c1cnc2ccc(Cl)cc2c1NCCCN(C)C [MMV006882]", "inhibition of growth at 5 µM [%]": 98}
{"compound": "CC1CN(C(=O)c2sc3ccccc3c2Cl)CC(C)O1 (stereo not drawn) [MMV020492]", "inhibition of growth at 5 µM [%]": 95}
{"compound": "COc1cc(-c2nc(-c3ccc(Sc4ccccc4)cc3)c(-c3ccccc3)[nH]2)cc(OC)c1O [MMV007273]", "inhibition of growth at 5 µM [%]": 97}

Input: What measured inhibition of growth at 5 µM is associated with COc1ccc(NC(=O)C2c3ccccc3C(=O)N(CC(C)C)C2c2cccs2)cc1Cl (stereo not drawn) [MMV000642] on P. falciparum 3D7?
Output: 100

Input: What measured inhibition of growth at 5 µM is associated with CCCOCc1cc(CN2CCN(c3cccc(Cl)c3)CC2)c(O)c2ncccc12 [MMV000787] on P. falciparum 3D7?
Output: 97

Input: What measured inhibition of growth at 5 µM is associated with CCOc1ccccc1NC(=O)CN1CCN(C(=O)c2ccco2)CC1 [MMV007791] on P. falciparum 3D7?
Output: 83

Input: What measured inhibition of growth at 5 µM is associated with O=C(CCl)NCCOc1ccc(Cl)cc1Cl [MMV665927] on P. falciparum 3D7?
Output: 94

Input: What measured inhibition of growth at 5 µM is associated with COc1cc2c3cc1Oc1c(OC)c(OC)cc4c1C(Cc1ccc(O)c(c1)Oc1ccc(cc1)CC3N(C)CC2)N(C)CC4 (stereo not drawn) [MMV007474] on P. falciparum 3D7?
Output: 96

Input: What measured inhibition of growth at 5 µM is associated with O=C(NCCCN1CCC(N2CCCCC2)CC1)C1=Cc2cc(Br)ccc2OC1 [MMV019995] on P. falciparum 3D7?
Output: 99

====

- Test system: P. falciparum 3D7
- procedure text: DAPI stain fluorescent high content imaging assay, P. falciparum 3D7 (confirmatory screen, Avery)
- measurement context: Plasmodium falciparum, 3D7, read-out: percent_inh @ 5 uM
assay endpoint: inhibition of growth at 5 µM (%)
A number alone suffices; assume %.

{"compound": "CCCCCCOC(=O)C1=C(C)NC(=O)NC1c1ccccc1F (stereo not drawn)", "inhibition of growth at 5 µM [%]": 95}
{"compound": "CCC(c1ccccc1)c1nn2c(-c3cccs3)nnc2s1 (stereo not drawn)", "inhibition of growth at 5 µM [%]": 99}

Input: // returns reported inhibition of growth at 5 µM for input CCN(CC)CCCNc1nc(-c2ccc(Cl)cc2)nc2ccccc12
Output: 92

Input: // returns reported inhibition of growth at 5 µM for input CC1CCN(Cc2c(O)ccc3cc(-c4nc5ccccc5s4)c(=O)oc23)CC1
Output: 91

Input: // returns reported inhibition of growth at 5 µM for input Nc1ccc(-c2nc3cc(Cc4ccc5[nH]c(-c6ccc(N)cc6)nc5c4)ccc3[nH]2)cc1
Output: 100

Input: // returns reported inhibition of growth at 5 µM for input Cc1ccc(C)c(Cn2c(N3CCC(C(=O)NCc4cccs4)CC3)nc3ccccc32)c1
Output: 97
